# normalized growth per record follows
Experiment: chemical genetic growth profiling, strain panel (AID 1159580);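 also: tested at 20 µM; growth read once vehicle control cultures reached saturation at 30 °C; 1 = growth at the plate median or of vehicle wells; lower values mean less growth of the strain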
Conditions: S. cerevisiae deletion strains, growth OD, locus YER110C, hits give low values
Out of some 5,500 compounds screened, about 2,000 (36%) were called active. Inconclusive results (about 18%) are left out. Some of the results follow.

COMPOUND | normalized growth
N[C@@H]1CONC1=O | 1.02
CC1(C)O[C@@H]2CC3C4CCC5=CC(=O)C=C[C@]5(C)[C@@]4(F)[C@@H](O)C[C@]3(C)[C@]2(C(=O)CO)O1 (some centres not stated) | 0.998
NS(=O)(=O)c1cc2c(cc1C(F)(F)F)NCNS2(=O)=O | 0.99
CC(=O)N(O)CCCCCNC(=O)CCC(=O)N(O)CCCCCNC(=O)CCC(=O)N(O)CCCCCN | 1.01
CCOC(=O)C1C(C=C(C)C)C1(C)C (configuration not stated) | 1.02
COc1cc2c3cc1Oc1cc(ccc1O)C[C@@H]1c4c(cc(OC)c(O)c4Oc4ccc(cc4)C[C@@H]3N(C)CC2)CC[N+]1(C)C | 1.01
Clc1ccc(Cl)cc1 | 0.979

Recorded values, source PubChem BioAssay AID1159580.
